Answer each item with its documented activation.
method_notes: qHTS assay for environmental chemicals that activate the Aryl hydrocarbon Receptor (AhR) signaling pathway (AID 651777); also: % of control where 0% means no effect; nearly all actives have a fitted effect of over 15% in size
test_settings: 1A2-DRE human hepatoma cells, luciferase, 24 h; active compounds read high
Records with an inconclusive call do not appear.
Write down the numeric answer in % and omit the unit.

## Task What value of activation has been reported for the following compound? CCCCC(CC)COCC1CO1 (stereo not given)
## Result -1.2

## Task Another compound to check: "Cc1cc(C(=O)O)ccc1[N+](=O)[O-]"
## Result 1.35

## Task Now give it for "CN(C)c1cccc(O)c1" too.
## Result 6.91

## Task And what about the compound "CC/C=C/C#N" ?
## Result -1.16

## Task Then what about the compound "CC(=O)c1ccccn1" ?
## Result -0.723

## Task Can you handle "CCCCOCCOCCOCCCC" next?
## Result -0.359

## Task Repeat for the following compound: "Nc1ccc(F)cc1F"
## Result -1.74

## Task And what about the compound "O=[N+]([O-])c1ccc(NCCO)c(OCCO)c1" ?
## Result 0.85

## Task Next up: "FB(F)F"
## Result -0.371

## Task Also need "CC(=O)Nc1ccccc1C" , thanks.
## Result -0.35

## Task Can you check "Cc1c(N)cccc1[N+](=O)[O-]" next?
## Result -0.541

## Task Try this compound too: "CC=C(Cl)Cl"
## Result -0.394

## Task Ok, now "COCCOC(=O)c1ccccc1C(=O)OCCOC"
## Result -0.057

## Task Now consider "CC(C)CCOC(=O)/C=C/c1ccccc1" and answer again.
## Result 0.411

## Task Please give the result for CCC(=O)/C=C/C1C(C)=CCCC1(C)C (stereo not given) too.
## Result -0.103

## Task Entry to check: "Cc1ccc(C(=O)O)cc1"
## Result -0.0785

## Task Again, but for "c1ccc2[nH]cnc2c1"
## Result 1.2

## Task Also check "Cc1cccc(C(=O)O)c1[N+](=O)[O-]"
## Result 1.97

## Task // repeat for "C/C=C(/C)C#N" and report
## Result 1.73

## Task # iterate: "O=CNc1ccccc1"
## Result -0.556

## Task // next record "CCC(C)(C)C"
## Result -1.03

## Task Likewise for "CN(C)CCCNCCCN" ?
## Result 0.0352

## Task Next compound up: "CC(=C/C=C/C(C)=C/C=C/C=C(C)/C=C/C=C(C)/C=C/C(=O)O)/C=C/C(=O)O"
## Result 2.66

## Task Proceed to "CC(C)C(C)C"
## Result 1.04

## Task Request: "Nc1ccccc1[N+](=O)[O-]"
## Result -0.331

## Task Here is the next compound: "Cc1ccc(CO)cc1"
## Result -1.15

## Task Next compound: "CC(=O)CC(C)C"
## Result -0.041

## Task Item: "[O-]/[N+](=N\O)c1ccccc1"
## Result 5.58

## Task Cool, now "CCCCN(CCO)CCCC"
## Result -0.692

## Task Again, but for CC(N)CN (stereo not given)
## Result -0.27

## Task What about this compound? "Clc1cc(Cl)cc(Cl)c1"
## Result 2.15

## Task Then what about the compound "O=[N+]([O-])c1cccc(Cl)c1" ?
## Result 0.317

## Task Here is the next compound: "Cc1ccco1"
## Result -0.591

## Task Try this compound too: "CO[Si](CCCNCCC[Si](OC)(OC)OC)(OC)OC"
## Result -0.757

## Task What do we get for "CNc1ccccc1" ?
## Result 1.11

====

method_notes: MultiTox-Fluor Cytotoxicity Assay - LYMP1-001 - Live Cells (AID 947);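 also: 0% = DMSO only and full inhibition = tetraoctylammonium bromide control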
test_settings: LYMP1-001 lymphoblastoid cells, live-cell protease fluorescence viability; series mostly up to 92.2 µM
Records with an inconclusive call do not appear. The source made the active and inactive calls. The call rests on the fitted dose curve; in most records, active means well fitted cell-killing curve with a large enough effect; inconclusive means small, poorly fitted or top-dose-only effect; inactive means flat fitted curve, though single readings scatter.
property_measured: outcome

Solved entries (count: 5):
compound: CCCCCCO
result: inactive
//
compound: O=C(O[C@@H](C(=O)O)[C@@H](OC(=O)c1ccccc1)C(=O)O)c1ccccc1
result: inactive
//
compound: CCC(C)(C)C(=O)O
result: inactive
//
compound: Cc1cccc(C)c1[N+](=O)[O-]
result: inactive
//
compound: CC(C=O)Cc1ccc(C(C)(C)C)cc1 (configuration not stated)
result: inactive

Could you now consider this next compound?
## Task State the recorded outcome for this entry: CCCC(Cl)CCCC(Cl)CCC(Cl)CCC(Cl)CCC(Cl)CCCC(Cl)CCC (configuration not stated)
## Result inactive

====

assay_system: Peroxisome proliferator-activated receptor alpha (Homo sapiens) (UniProt Q07869)
Sequence (Q07869 whole entry, looked up): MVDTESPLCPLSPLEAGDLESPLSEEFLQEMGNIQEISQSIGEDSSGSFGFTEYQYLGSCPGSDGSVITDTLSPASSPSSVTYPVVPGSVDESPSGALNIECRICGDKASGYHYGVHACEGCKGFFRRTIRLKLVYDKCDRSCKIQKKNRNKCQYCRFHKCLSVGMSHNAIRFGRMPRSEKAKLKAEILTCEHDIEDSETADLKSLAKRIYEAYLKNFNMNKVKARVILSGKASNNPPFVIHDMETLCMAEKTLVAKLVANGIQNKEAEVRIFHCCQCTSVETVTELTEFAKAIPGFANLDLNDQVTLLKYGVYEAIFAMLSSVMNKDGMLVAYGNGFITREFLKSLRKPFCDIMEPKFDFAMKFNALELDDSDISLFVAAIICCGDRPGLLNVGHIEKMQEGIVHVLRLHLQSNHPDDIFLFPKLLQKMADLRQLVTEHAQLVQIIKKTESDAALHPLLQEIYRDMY
method_notes: qHTS assay for small molecule agonists of the peroxisome proliferator-activated receptor alpha (PPARalpha) signaling pathway (AID 651778); also: % of control where 0% means no effect
test_settings: PathHunter PPARalpha complementation, chemiluminescence, 6 h; active compounds read high
property_measured: max response (%)
Quick reminder: number only, in %, skip the unit.

## Task Give the reported max response for "c1ccc2n[nH]nc2c1" (system: Peroxisome proliferator-activated receptor alpha (Homo sapiens) (UniProt Q07869)).
## Result -6.33

## Task And the next one, "C=CCn1c(=O)n(CC=C)c(=O)n(CC=C)c1=O" ?
## Result -0.851

## Task Try the compound "NC(N)=S"
## Result -4.91

## Task Queued: "NCCCCCCN"
## Result -4.8

## Task Also "O=C(O)c1c(Cl)cccc1Cl" ?
## Result 0.175

## Task Repeat for the following compound: "CCOc1cc(OCC)c(C(C)=O)cc1OCC"
## Result 0.501

====

method_notes: Cellular Toxicity (caspase-3) Mesangial (AID 660);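 also: combined caspase 3 and 7 activity read by Caspase-Glo luminescence; cells exposed to compound for 16 h before the caspase read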
test_settings: mesangial cells, normalized: DMSO 0%, 100 µM tamoxifen 100%; at 91.7 µM (top of the series)
property_measured: caspase-3 activation (%)
Give just the numeric value; % need not be written.

## Task Requested read-out: caspase-3 activation. Entry: "Cc1ccc(C)cc1"
## Result -0.809

## Task Likewise for "O=C(O)c1ccc(CO)o1" ?
## Result -0.701

## Task Next record, please: "COc1ccccc1[N+](=O)[O-]"
## Result -1.05

## Task And "c1ccc(Oc2ccccc2)cc1" ?
## Result 0.858

## Task Follow-up entry: "Cc1ccc(C)c(N)c1"
## Result 1.89

## Task Same for CC(C)(C)OCC1CO1 (centres undefined)
## Result 0.391

## Task Okay, and "COC(=O)CCCC(=O)OC" ?
## Result -0.518

## Task Here is the next compound: "Oc1cccc(Nc2ccccc2)c1"
## Result -0.245

## Task What about "O=C(O)c1ccccc1C(=O)O" ?
## Result 1.74

## Task # iterate: "CCC(C)(C)C(=O)O"
## Result 0.0755

## Task Also need "O=[N+]([O-])c1ccc2nc[nH]c2c1" , thanks.
## Result 0.38

## Task And the next one, "CC(C)N(C)C" ?
## Result 0.455

## Task Repeat for the following compound: "CCCCCCC=O"
## Result -0.687

## Task Then "CC#N" ?
## Result 1.61

## Task Record: CC(C)(C)c1ccc(OCC2CO2)cc1 (centres undefined)
## Result 1.34

## Task Param item: "O=P(O)(OCc1ccccc1)OCc1ccccc1"
## Result -0.354

## Task Same thing, different compound: "CC(=O)OCCC(C)C"
## Result 0.804

## Task Please give the result for "COC(=O)CS" too.
## Result -1.25

## Task Try the compound "ON=C1CCCCC1"
## Result 0.894

## Task Same question, "Nc1cccc(O)c1" this time
## Result 0.168

## Task Also, "O=C(O)c1cccc([N+](=O)[O-])c1" please.
## Result -1.42

## Task // repeat for "O=[N+]([O-])c1ccc(CCO)cc1" and report
## Result -1.2

## Task Please do the same for "Nc1ccc(F)cc1F" as well.
## Result -0.571

## Task Same for "Cc1ccc(N(C)C)cc1"
## Result 0.102

## Task Can you check "NC(=O)NC(N)=O" next?
## Result -0.43

## Task Another: "Cc1ccc(Br)cc1"
## Result -0.699

## Task Would you kindly repeat that for "CC/C=C1/OC(=O)c2ccccc21" ?
## Result 0.157

## Task Lookup "FC(F)(F)c1cccc(Cl)c1"
## Result -0.53

## Task Also, "Nc1ccccc1S(=O)(=O)O" please.
## Result -0.218

## Task Now consider "Cc1cc(C2(c3cc(C)c(O)cc3C)OS(=O)(=O)c3ccccc32)c(C)cc1O" .
## Result -0.0933

## Task And what about the compound "COc1ccc(OC)cc1" ?
## Result 0.503

## Task What about "Nc1cc(Cl)c([N+](=O)[O-])cc1O" ?
## Result -0.0539

## Task What would you report for CCCC(Cl)CCCC(Cl)CCC(Cl)CCC(Cl)CCC(Cl)CCCC(Cl)CCC (centres undefined) ?
## Result 1.24

## Task Same question, "COc1cccc2sc(N)nc12" this time
## Result 1.13
